Assay Summary: folding enthalpy; higher = less favourable; fluorescence melt of hairpins on a sequencing array, two-state fit
Conditions: sodium 0.088 M
Measurement Kind: folding enthalpy (kcal/mol)
Field format: number, assumed kcal/mol, no unit text.

1) GAGAAGAAATTCTC (((((....)))))    -9.49

Turning now to a further sequence:
Determine from records and report folding enthalpy for GATAACGCGAAAGCGATC (((..(((....))))))
-10.2

---

Quick list: Tm per entry.
Assay Summary: melting temperature; fluorescence melt of hairpins on a sequencing array, two-state fit, raised by 9.35 °C to match UV melts
Conditions: sodium 0.088 M
Field format: number, assumed °C, no unit text.

Worked cases, answers included:
1. GATCCTGGGAAGGATC ((((((....))))))    59.7
2. GATCCGTGTGCGGATC ((((((....))))))    66.7

Determine from records and report Tm for GCTTGGGGAAACCCGAGC (((.(((....))).)))
56.7

Determine from records and report Tm for CGAGCGGAAACGCTCTCG ((((((....)))..)))
40.5

Determine from records and report Tm for ATCAGGAAACTGAT (((((....)))))
40.6

Determine from records and report Tm for GGACTGGGAAACTGGTCC ((((..(....)..))))
45.5

Determine from records and report Tm for GATCTACTCCTAGATC ((((((....))))))
39.5

---

Assay Summary: melting temperature; fluorescence melt of hairpins on a sequencing array, two-state fit, raised by 9.35 °C to match UV melts
Conditions: sodium 0.088 M
Using Tm as the sorting value, the categories are band 1 = under 40 °C, band 2 = from 40 °C up to 50 °C, band 3 = 50 °C and over

Worked set:
1. GCCGTCGAAAGACTGGC ((((((....))).)))    band 3
2. GCCGGGCGAAAGCCCCGC ((.((((....)))).))    band 3
3. GGGTAAGCGAAAGCTCCC (((..(((....))))))    band 2

Looking at GTCTATCGAAAGATCGAC (((.(((....))).))) , which class would you pick?
band 2

Looking at GGTCCTGAAAAGGACC ((((((....)))))) , which class would you pick?
band 3

Looking at GTCATCGAAAGATAAGAC ((((((....)))..))) , which class would you pick?
band 1

Looking at GGTATACGAAAGTAAACC (((.(((....))).))) , which class would you pick?
band 2

Looking at GCAACGCGAAAGCACTGC (((..((....))..))) , which class would you pick?
band 2

Looking at GGTTCCGGAAACGGAGCC ((.((((....)))).)) , which class would you pick?
band 3

Looking at GTGTTCGAAAGAACGCAC ((((((....)))..))) , which class would you pick?
band 2

Looking at GGTAGGCCGAAAGGCACC (((..(((....)))))) , which class would you pick?
band 2

Looking at GCGGATGGAAACATTCGC (((.(((....))).))) , which class would you pick?
band 3

Looking at GAGACCCGAAAGGGCCTC (((.(((....))).))) , which class would you pick?
band 3

Looking at GGCATTGGAAACGATGCC (((((.(....).))))) , which class would you pick?
band 3

Looking at GGAAGTCGAAAGACTCC (((.(((....)))))) , which class would you pick?
band 3

Looking at GCCGAGAAATCGGC (((((....))))) , which class would you pick?
band 3

Looking at GCTTTAGGAAACTAAGGC ((.((((....)))).)) , which class would you pick?
band 1

Looking at GCTGTCACGAAAGTGAGC (((..(((....)))))) , which class would you pick?
band 1

Looking at GCCTCCGAAAGGAACGGC ((((((....)))..))) , which class would you pick?
band 2

---

Assay Summary: melting temperature; fluorescence melt of hairpins on a sequencing array, two-state fit, raised by 9.35 °C to match UV melts
Conditions: sodium 0.088 M
Using Tm as the sorting value, the categories are c1 = under 40 °C, c2 = from 40 °C up to 50 °C, c3 = 50 °C and over

1) CGATCGGAAACGAATCG ((((((....))).)))    c2
2) GCGCATGGAAACGTGCGC (((((.(....).)))))    c3
3) GCGATGCTCGC ((((...))))    c3
4) GCTATCGAAAGATTGAGC ((((((....)))..)))    c1

Shifting focus to the sequence that follows.
Looking at GCAAACGAAAGTTGATGC ((((((....)))..))) , which class would you pick?
c1

---

Assay Summary: melting temperature; fluorescence melt of hairpins on a sequencing array, two-state fit, raised by 9.35 °C to match UV melts
Conditions: sodium 0.088 M
Using Tm as the sorting value, the categories are bottom end (below 40 °C), midrange (40 °C to below 50 °C), top end (50 °C or more)

Worked set:
1. CGTTCGGAAACGAGCACG ((((((....)))..)))    bottom end
2. GTAGGAGGAAACTCCTAC (((((((....)))))))    top end
3. GCGTCCTAACGC ((((....))))    top end
4. GCGAAGGATCGC ((((....))))    top end
5. GCAGCGCGAAAGCGTAGC ((..(((....)))..))    top end
6. GATCGAGGCGTCGATC ((((((....))))))    top end

Looking at GATCGTGCCAACGATC ((((((....)))))) , which class would you pick?
top end

Looking at GACATGGGAAACCATATC ((.((((....)))).)) , which class would you pick?
bottom end

Looking at GTGGGCGGAAACGCCTAC ((.((((....)))).)) , which class would you pick?
top end

Looking at GGGTTTGGAAACGAATCC ((.((.(....).)).)) , which class would you pick?
bottom end

---

Assay Summary: folding enthalpy; higher = less favourable; fluorescence melt of hairpins on a sequencing array, two-state fit
Conditions: sodium 0.088 M
Measurement Kind: folding enthalpy (kcal/mol)
Field format: number, assumed kcal/mol, no unit text.

1. GATCGTAAACACGATC ((((((....))))))    -36.9
2. GATCGCCGAAAGGCTATC (((.(((....))).)))    -20.4
3. GGTATTGGAAACAATGCC ((.((((....)))).))    -37.1
4. GTCCCCGAAAGGGCGAC ((((((....))).)))    -20.8

Turning now to a further sequence:
Determine from records and report folding enthalpy for GAAATCGGAAACGATCTC ((.((((....)))).))
-17.4

---

Assay Summary: folding enthalpy; higher = less favourable; fluorescence melt of hairpins on a sequencing array, two-state fit
Conditions: sodium 0.088 M
Using folding enthalpy as the sorting value, the categories are bucket 1 = under -30 kcal/mol, bucket 2 = from -30 kcal/mol up to -20 kcal/mol, bucket 3 = -20 kcal/mol and over

Worked set:
1) GATGCTGGAAACAGTGTC ((..(((....)))..))    bucket 2
2) GTGTGAGGAAACTCGCAC (((.(((....))).)))    bucket 1
3) GATCAAATACTTGATC ((((((....))))))    bucket 1
4) GGGAGTCGAAAGACCCCC (((.(((....))).)))    bucket 1
5) GCAGGGCGAAAGCCACGC ((..(((....)))..))    bucket 3
6) GTGACCGGAAACGGTTAC ((.((((....)))).))    bucket 2
7) GCGCCGCGAAAGCGTGGC ((..(((....)))..))    bucket 3
8) GATCGAGGCTCGATC ((((((...))))))    bucket 1

Looking at GTTCGGCGAAAGCCCAAC (((.(((....))).))) , which class would you pick?
bucket 3

Looking at GTGTCGGGAAACCGATAC ((.((((....)))).)) , which class would you pick?
bucket 2

Looking at GGTACGGAAACGTACC ((((((....)))))) , which class would you pick?
bucket 1

Looking at GCACAGCGAAAGCGGGGC ((.(.((....)).).)) , which class would you pick?
bucket 1

Looking at GTGTACGAAAGTATCCAC ((((((....)))..))) , which class would you pick?
bucket 3

Looking at GAACGCGAAAGCGGCTTC ((((((....)))..))) , which class would you pick?
bucket 3

Looking at GTCGCTCGAAAGAGGAC (((.(((....)))))) , which class would you pick?
bucket 3

Looking at GTGATGGCGAAAGCCCAC (((..(((....)))))) , which class would you pick?
bucket 3
